Biological target: T1, cJun bZIP (human, UniProt P05412 252-308, limits assumed)
T1 chain: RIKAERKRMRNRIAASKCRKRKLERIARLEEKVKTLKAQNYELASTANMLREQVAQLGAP
Assay: cell-based or functional assay
Bridge positions count the residues as written; N and C are the ends.
assay.metric: IC50 CD (µM)
Quick reminder: number only, in µM, skip the unit.

binder="Ac-LVVEEDVLEEEIEQLEEKNKALKDEIEDLQKQLEKLY-NH2 (lactam 20-24 (inferred); also: table prints a different, shorter sequence for 7/8, See peptide 7; also called cyclised form of 7/8) [HingeW variant peptide 8]" assay_metric="IC50 CD" value_unit=µM measurement=73.5

(Q) Reported IC50 CD, binder Ac-EAEELVVEEDVLEEEIKQLEDRNYALRKEIEDLQKQ-NH2 (Synthetic, NΔ20 CΔ7; also called linear form of 18/19) [HingeW variant peptide 18] : ____
(A) 98.9

(Q) Here is the next binder: Ac-KEAEDLVVEEDVLEEEIEQLEERNYALRKEIKDLQDQ-NH2 (Synthetic, NΔ19 CΔ7; also called linear form of 12/13) [HingeW variant peptide 12]
(A) 115

(Q) Here is the next binder: Ac-LEKEAEELVVEEDVLEEEIEQLEERNYALRKEIEDLQKQLEKL-NH2 (Synthetic, NΔ17 CΔ3; also called peptide 3) [HingeW peptide variant 3]
(A) 33.7

(Q) Here is the next binder: Ac-EAEELVVEEDVLEEEIEQLEEKNKALKDEIEDLQKQY-NH2 (Synthetic, NΔ20 CΔ7; also called linear form of 20/21) [HingeW variant peptide 20]
(A) 121

Data origin: patent US20250188151A1
